property.measured: flash point (°C)

[1] CCCCC(Cl)CC (stereo unspecified)
[2] CCCCCCCCCCCCl
Between 1 and 2 , whose recorded flash point is greater? # answer = label of selected item
2

[a] CCCC(C)(Cl)C(C)C (stereo unspecified)
[b] CCCC(Cl)CC (stereo unspecified)
Given the listed items, does a or b have the lesser reported flash point? # answer = label of selected item
b
(b: 25.1 °C, a: 43.6 °C)

---

property.measured: flash point (°C)
The figure you give is taken to be in °C; do not add the unit.

* CCCCCCCCCCCC | 74.00
* CCCCN(C)N=O [N-butyl-N-methylnitrous amide] | 32.00
* O=C(O)Cc1ccccc1 | 132.00

Let us examine a further case.
Tell me the measured flash point of CCCC#N , please.
17.00
